# Tested on: NCI-H522
# Procedure Details: NCI tumour cell line growth inhibition, 48 h
Activity calls are given as the source filed them. Rule as the data show it: active = GI50 up to about 1.1 µM and inactive = higher.
Value Type: GI50

What value of measured GI50 is listed for COC(=O)CN1C(=O)C2(C(=O)OC)OC1(c1ccc([N+](=O)[O-])cc1)C1C(=O)N(c3ccccc3)C(=O)C12 (centres undefined) ? > 100 µM (inactive)

What would you report for CCOc1cc(C2CC(c3ccc(NS(=O)(=O)c4cc([N+](=O)[O-])ccc4C)cc3)=NN2S(=O)(=O)c2cc([N+](=O)[O-])ccc2C)ccc1O (centres undefined) ? 22.9 µM (inactive)

What would you report for "Clc1ccc(/C=C/c2csnn2)cc1" ? > 100 µM (inactive)

What would you report for "COc1ccc2c3c(c(=O)n(C)c2c1OC)C=CC(C)(C)O3" ? 34.5 µM (inactive)

###

# System: HT-29
# Procedure Details: NCI tumour cell line growth inhibition, 48 h
The source made the active and inactive calls. Cut-off read from the data, not from the text of the source: active = GI50 up to about 1.1 µM and inactive = higher.
Value Type: GI50

What value of measured GI50 is listed for "COc1ccc(/C=N/n2c(=O)[nH]c3ccccc3c2=O)cc1" ? > 100 µM (inactive)

What would you report for CC(=O)OC1COC(n2nc(/C=C/c3ccc(Cl)cc3)c(=O)n(/N=C/c3ccccc3)c2=S)C(OC(C)=O)C1OC(C)=O (stereo not given) ? > 100 µM (inactive)

What would you report for "C[C@H](CSC(=O)c1ccccc1)C(=O)N1c2ccccc2C[C@H]1C(=O)O" ? 47.2 µM (inactive)

What would you report for OC1CCC(C2C3CCCCC3C3CCCCC3C2C2CCC(O)CC2)CC1 (stereo not given) ? 2.05 µM (inactive)

What would you report for COc1ccc(C2ON(c3ccccc3)CC=C2C)cc1 (stereo not given) ? 34.4 µM (inactive)

###

# System: UO-31
# Procedure Details: NCI tumour cell line growth inhibition, 48 h
Calls of active or inactive are those of the source. Rule as the data show it: active = GI50 up to about 1.1 µM and inactive = higher.
Overview of recorded GI50 for various compounds

Some solved entries appear below for comparison.
                                   compound  value_type  reported_measurement
0           CCOC(=O)C(=O)Nc1nc2ccc(OC)cc2s1        GI50   > 100 µM (inactive)
1                 Fc1ccc2c3c([nH]c2c1)CCNC3        GI50    31.8 µM (inactive)
2         CCC1CN2CCC1CC2 (stereo not drawn)        GI50   > 100 µM (inactive)
3  CC(CCC(=O)O)(c1cc(Br)c(O)c(Br)c1)c1cc(Br)c(O)c(Br)c1        GI50    66.7 µM (inactive)
4  O=C(c1ccccc1)N1CCC(Nc2nccs2)O1 (stereo not drawn)        GI50    > 10 µM (inactive)

What value of measured GI50 is listed for "Cn1c2ccccc2c2ccc3c(c21)C(=O)C=CC3=O" ? 6.93 µM (inactive)

What would you report for "COc1cc(/C=C(\C#N)C(=O)c2ccccc2)cc(OC)c1OC" ? > 100 µM (inactive)

What would you report for "CC1=C2C(=C[C@H]3[C@]4(C)CCCC(C)(C)[C@H]4CC[C@]34O[C@H]24)OC1=O" ? > 100 µM (inactive)

What would you report for "Cc1ccc(C(=O)c2[nH]c(Nc3ccc(Cl)cc3)c(C(=S)Nc3ccccc3)c2N)cc1" ? 9.14 µM (inactive)

What would you report for Cc1ccc(S(=O)(=O)NC(=O)NC(Cc2ccccc2)C(=O)O)cc1 (stereo not drawn) ? > 100 µM (inactive)

What would you report for "O=c1c2cc(-c3ccccc3)cnc2sn1-c1ccc([N+](=O)[O-])cc1" ? 40 µM (inactive)

What would you report for "Oc1ccc(/N=N/c2ccc(Cl)cc2)cc1" ? 13.7 µM (inactive)

What would you report for "COc1cccc2c(Nc3ccc(S(=O)(=O)NC(C)=O)cc3)c3ccc([N+](=O)[O-])cc3nc12" ? 12.4 µM (inactive)

What would you report for "CCN(CC)CCCNc1ccc([N+](=O)[O-])c2nc3ccccc3c(N)c12" ? 1.57 µM (inactive)

What would you report for "COc1ccc(-c2cc(=O)c3ccccc3o2)cc1N" ? 19.9 µM (inactive)

What would you report for "CS/C(=N\c1nccs1)NC(=O)c1cccc(Cl)c1" ? 62.4 µM (inactive)

What would you report for COC1=CC(C)C2C[C@H]3O[C@H](O)C[C@H]4C(C)C(=O)C(O)C([C@@]2(C)C1=O)[C@@]34C (stereo partly drawn) ? > 100 µM (inactive)
